Origin of values: ChEMBL document CHEMBL1139560

Reported Ka values for the following compounds.
- System: Nucleic Acid
- MEASUREMENT_PROTOCOL: In vitro association constant for binding at d(AAGAATTCTT)2 done in 50 mM Tris-HCL in pH 6.35 at room temperature
- Format: nucleic-acid assay
No unit in the answer, please; the number alone is enough.

[
  {
    "STRUCTURE_SMILES": "COc1ccc2cc3[n+](cc2c1OCCCCCCOc1c(OC)ccc2cc4[n+](cc12)CCc1cc2c(cc1-4)OCO2)CCc1cc2c(cc1-3)OCO2",
    "Ka": 34200
  }
]

Form field: reported Ka of COc1ccc2cc3[n+](cc2c1OCCCCCOc1c(OC)ccc2cc4[n+](cc12)CCc1cc2c(cc1-4)OCO2)CCc1cc2c(cc1-3)OCO2 57700

----------
- Test system: Nucleic Acid
- MEASUREMENT_PROTOCOL: In vitro relative affinity for binding to d(TA AGAATTCTTA)2
- Assay type: nucleic-acid assay
Binary classification by RA, with 10 as an inclusive lower bound for label 1; all other cases are label 0.

Example entries and their recorded answers appear below.
[
  {
    "STRUCTURE_SMILES": "COc1ccc2cc3[n+](cc2c1OCCCCCCOc1c(OC)ccc2cc4[n+](cc12)CCc1cc2c(cc1-4)OCO2)CCc1cc2c(cc1-3)OCO2",
    "DISCRETE_LABEL": "label 0"
  },
  {
    "STRUCTURE_SMILES": "COc1ccc2cc3[n+](cc2c1OC)CCc1cc2c(cc1-3)OCO2",
    "DISCRETE_LABEL": "label 0"
  }
]

Entry COc1ccc2cc3[n+](cc2c1OCCCCOc1c(OC)ccc2cc4[n+](cc12)CCc1cc2c(cc1-4)OCO2)CCc1cc2c(cc1-3)OCO2 : is its RA no less than 10? label 1

Entry COc1ccc2cc3[n+](cc2c1OCCCCCOc1c(OC)ccc2cc4[n+](cc12)CCc1cc2c(cc1-4)OCO2)CCc1cc2c(cc1-3)OCO2 : is its RA no less than 10? label 1

Entry COc1ccc2cc3[n+](cc2c1OCCCOc1c(OC)ccc2cc4[n+](cc12)CCc1cc2c(cc1-4)OCO2)CCc1cc2c(cc1-3)OCO2 : is its RA no less than 10? label 1

----------
- Test system: Nucleic Acid
- MEASUREMENT_PROTOCOL: In vitro relative affinity for binding to d(AAGAATTCTT)2
- Assay type: nucleic-acid assay
Binary classification by RA, with 5 as an inclusive lower bound for 1; all other cases are 0.

Example entries and their recorded answers appear below.
[
  {
    "STRUCTURE_SMILES": "COc1ccc2cc3[n+](cc2c1OCCCCCOc1c(OC)ccc2cc4[n+](cc12)CCc1cc2c(cc1-4)OCO2)CCc1cc2c(cc1-3)OCO2",
    "DISCRETE_LABEL": 0
  },
  {
    "STRUCTURE_SMILES": "COc1ccc2cc3[n+](cc2c1OCCCOc1c(OC)ccc2cc4[n+](cc12)CCc1cc2c(cc1-4)OCO2)CCc1cc2c(cc1-3)OCO2",
    "DISCRETE_LABEL": 1
  },
  {
    "STRUCTURE_SMILES": "COc1ccc2cc3[n+](cc2c1OCCCCCCOc1c(OC)ccc2cc4[n+](cc12)CCc1cc2c(cc1-4)OCO2)CCc1cc2c(cc1-3)OCO2",
    "DISCRETE_LABEL": 0
  }
]

Entry COc1ccc2cc3[n+](cc2c1OCCCCOc1c(OC)ccc2cc4[n+](cc12)CCc1cc2c(cc1-4)OCO2)CCc1cc2c(cc1-3)OCO2 : is its RA no less than 5? 1

Entry COc1ccc2cc3[n+](cc2c1OC)CCc1cc2c(cc1-3)OCO2 : is its RA no less than 5? 0

----------
- System: Nucleic Acid
- MEASUREMENT_PROTOCOL: In vitro association constant for binding at d(TA AGAATTCTTA)2 done in 50 mM Tris-HCL in pH 6.35 at room temperature
- Format: nucleic-acid assay
OBSERVABLE: Ka
No unit in the answer, please; the number alone is enough.

[
  {
    "STRUCTURE_SMILES": "COc1ccc2cc3[n+](cc2c1OCCCCCOc1c(OC)ccc2cc4[n+](cc12)CCc1cc2c(cc1-4)OCO2)CCc1cc2c(cc1-3)OCO2",
    "Ka": 321000
  }
]

Form field: reported Ka of COc1ccc2cc3[n+](cc2c1OC)CCc1cc2c(cc1-3)OCO2 29300

Form field: reported Ka of COc1ccc2cc3[n+](cc2c1OCCCOc1c(OC)ccc2cc4[n+](cc12)CCc1cc2c(cc1-4)OCO2)CCc1cc2c(cc1-3)OCO2 2.76e+06

Form field: reported Ka of COc1ccc2cc3[n+](cc2c1OCCCCCCOc1c(OC)ccc2cc4[n+](cc12)CCc1cc2c(cc1-4)OCO2)CCc1cc2c(cc1-3)OCO2 248000

Form field: reported Ka of COc1ccc2cc3[n+](cc2c1OCCCCOc1c(OC)ccc2cc4[n+](cc12)CCc1cc2c(cc1-4)OCO2)CCc1cc2c(cc1-3)OCO2 349000

----------
- System: Nucleic Acid
- MEASUREMENT_PROTOCOL: In vitro association constant for binding at d(AAGAATTCTT)2 done in 50 mM Tris-HCL in pH 6.35 at room temperature
- Type: nucleic-acid assay
OBSERVABLE: Ka
No unit in the answer, please; the number alone is enough.

[
  {
    "STRUCTURE_SMILES": "COc1ccc2cc3[n+](cc2c1OCCCOc1c(OC)ccc2cc4[n+](cc12)CCc1cc2c(cc1-4)OCO2)CCc1cc2c(cc1-3)OCO2",
    "ASSAY_RESULT": 246000
  },
  {
    "STRUCTURE_SMILES": "COc1ccc2cc3[n+](cc2c1OCCCCOc1c(OC)ccc2cc4[n+](cc12)CCc1cc2c(cc1-4)OCO2)CCc1cc2c(cc1-3)OCO2",
    "ASSAY_RESULT": 87800
  }
]

Consider the additional molecule presented here.
Form field: reported Ka of COc1ccc2cc3[n+](cc2c1OC)CCc1cc2c(cc1-3)OCO2 12400
